Tested on: HeLa MZ
test.summary: whole-cell filipin (free cholesterol) integrated intensity, Z-score; higher = more cholesterol staining
test.conditions: compound concentration in added solution (µM; 5 µl added to 20 µl cells): 10; 18 h
Structures can show the parent of a compound that is named as a salt.
// whole-cell filipin (z-score) lookup, one value per entry

# compound, whole-cell filipin (z-score)
records = [
    ("C=CC1=C(C(=O)O)N2C(=O)[C@@H](NC(=O)/C(=N\\O)c3csc(N)n3)[C@H]2SC1", -0.322),
    ("CN(C)CCOC(=O)C(c1ccccc1)C1(O)CCCC1 (centres undefined) [Cyclopentolate hydrochloride]", -0.332),
    ("CCn1cc(C(=O)O)c(=O)c2cc(F)c(N3CCN(C)CC3)cc21", -1.02),
    ("Nc1ccc(S(=O)(=O)Nc2ccc(Cl)nn2)cc1", -0.78),
    ("CC1CCc2c(N3CCC(O)CC3)c(F)cc3c(=O)c(C(=O)O)cn1c23 (centres undefined)", -0.254),
    ("O=C(O)CN(CCN(CC(=O)O)CC(=O)O)CCN(CC(=O)O)CC(=O)O", -0.669),
    ("O=C(O)COC(=O)Cc1ccccc1Nc1c(Cl)cccc1Cl", -0.27),
    ("CC(C(=O)O)c1cccc(C(=O)c2ccccc2)c1 (centres undefined)", -0.835),
    ("COc1cccc(N(C)C(=S)Oc2ccc3c(c2)CCCC3)n1 [Liranaftate]", 0.593),
]

Reference for the values: the supplement of paper PMC6607015
